Assay: Antiproliferative activity against human DND41 cells assessed as inhibition of cell proliferation measured after 72 hrs by real time imaging analysis
Type: functional, cell-based
Settings: DND41, 72 h
READOUT: IC50 (nM)
Just the number in nM, nothing appended.

Some compounds with known IC50 results, for comparison:
{"columns": ["COMPOUND", "READOUT", "ENDPOINT RESULT"],
 "data": [
  ["N#C/C(=C\\c1ccc[nH]1)c1nc2ccccc2n1-c1ccccc1", "IC50", 41200],
  ["CN(C)c1ccc(/C=C(\\C#N)c2nc3ccc(C#N)cc3n2-c2ccccc2)cc1", "IC50", 55800],
  ["N#C/C(=C\\c1ccc(Br)cc1)c1nc2ccccc2n1-c1ccccc1", "IC50", 12300],
  ["CN[C@@H]1C[C@H]2O[C@@](C)([C@@H]1OC)n1c3ccccc3c3c4c(c5c6ccccc6n2c5c31)C(=O)NC4 [STAUROSPORINE]", "IC50", 16],
  ["CC(=O)O[C@@]12CO[C@@H]1C[C@H](O)[C@@]1(C)C(=O)[C@H](O)C3=C(C)[C@@H](OC(=O)[C@H](O)[C@@H](NC(=O)OC(C)(C)C)c4ccccc4)C[C@@](O)([C@@H](OC(=O)c4ccccc4)[C@H]21)C3(C)C [DOCETAXEL ANHYDROUS]", "IC50", 12.5],
  ["CC(C)Cn1c(C(C#N)=Cc2ccc(N(C)C)cc2)nc2ccccc21", "IC50", 200]
]}

Continue with the compound presented below.
Given `CC(C)Cn1c(C(C#N)=Cc2ccc(N(C)C)cc2)nc2ccc(C#N)cc21` , state its recorded IC50. 300
